- method: Half life period was evaluated against man at a dose of 10 mg/kg after po administration
- Assay type: ADME, organism-based
- Set-up: dose 10 mg/kg, route oral
- applied_conditions: human, in vivo
property: half-life (days)
Value expressed in days; do not type the unit.

Sample `CS(=O)(=O)c1ccc(-c2cc(Br)sc2-c2ccc(F)cc2)cc1` — what was its half-life? 12.2

---

- method: Maximum time was evaluated against man at a dose of 10 mg/kg after po administration
- Assay type: ADME, organism-based
- Design: dose 10 mg/kg, route oral
- applied_conditions: human, in vivo
property: Tmax (h)
Value expressed in h; do not type the unit.

Sample CS(=O)(=O)c1ccc(-c2cc(Br)sc2-c2ccc(F)cc2)cc1 [DUP-697] — what was its Tmax? 3
